Experiment: Solubility in culture medium (nephelometry)
Format: physicochemical
Conditions: 37 °C, plasma or biological fluid, kinetic from dmso stock, dosing medium with 20% serum, 37° C.; CM 24 HR; read-out: Highest Soluble Concentration Tested
Procedure: Solubility: The test compounds were prepared in DMSO and the appropriate amounts were then added to complete medium containing 10% bovine serum […] at 37° C. The samples were evaluated using a light scattering technique and a Nephaloskan instrument. Solubility Assay: The test compounds were prepared in DMSO and the appropriate amounts were then added to complete medium containing 10% bovine serum at 37° C. […]
observation_type: solubility (µM)
Record the value in µM, omitting the unit from your answer.

>  <molecule>
Cc1cccc(C)c1OCC(=O)N[C@@H](Cc1ccccc1)[C@@H](O)C[C@H](Cc1ccccc1)NC(=O)[C@H](C(C)C)N1CCCNC1=O

>  <observation_type>
solubility

>  <test_value>
50

$$$$
>  <molecule>
COc1cccc2c1C(=O)c1c(O)c3c(c(O)c1C2=O)C[C@@](O)(C(=O)CO)C[C@@H]3O[C@H]1C[C@H](N)[C@H](O)[C@H](C)O1

>  <observation_type>
solubility

>  <test_value>
100

$$$$

Enquiry: Query (compound): C=C(C)[C@H]1Cc2c(ccc3c2O[C@@H]2COc4cc(OC)c(OC)cc4[C@@H]2C3=O)O1 ; field requested: solubility
Return: 100
